All figures here come from ChEMBL document CHEMBL1201862.

# SYSTEM NAME: FAD-linked sulfhydryl oxidase ALR (Homo sapiens)
# Sequence (P55789 whole entry): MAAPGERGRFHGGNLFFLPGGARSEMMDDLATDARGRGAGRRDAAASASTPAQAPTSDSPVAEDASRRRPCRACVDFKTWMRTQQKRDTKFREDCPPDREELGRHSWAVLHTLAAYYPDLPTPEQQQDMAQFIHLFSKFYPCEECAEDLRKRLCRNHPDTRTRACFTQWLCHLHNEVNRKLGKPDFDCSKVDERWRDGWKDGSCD
# TEST METHOD NOTES: inhibitors of human ALR sulfhydryl oxidase, dose response, biochemical, H2O2 detection, luminescence, cherry-pick (AID 493248)
The source made the active and inactive calls. Rule as the data show it: actives have a measured AC50 and inactives only a lower limit.
PROPERTY MEASURED: AC50

COc1cc(CNc2ncc(-c3ccc(Cl)cc3)n2C)cc(OC)c1OC    4.59 µM (active)
Cc1ccccc1Nc1c(-c2ccccn2)nc2ccccn12    1.37 µM (active)
COc1cccc(N2CCN(CC(=O)NCc3cccs3)CC2)c1    4.1 µM (active)

IN: Report AC50 for Sc1nnc(-c2ccco2)n1/N=C/c1cccc(Cl)c1Cl
OUT: 4.84 µM (active)

IN: Report AC50 for O=S(=O)(N=S1CC=CCN1S(=O)(=O)c1ccccc1)c1ccccc1 (configuration not stated)
OUT: 2.19 µM (active)
